- tgt: EHMT1 (Homo sapiens)
- Sequence (Q9H9B1 whole entry): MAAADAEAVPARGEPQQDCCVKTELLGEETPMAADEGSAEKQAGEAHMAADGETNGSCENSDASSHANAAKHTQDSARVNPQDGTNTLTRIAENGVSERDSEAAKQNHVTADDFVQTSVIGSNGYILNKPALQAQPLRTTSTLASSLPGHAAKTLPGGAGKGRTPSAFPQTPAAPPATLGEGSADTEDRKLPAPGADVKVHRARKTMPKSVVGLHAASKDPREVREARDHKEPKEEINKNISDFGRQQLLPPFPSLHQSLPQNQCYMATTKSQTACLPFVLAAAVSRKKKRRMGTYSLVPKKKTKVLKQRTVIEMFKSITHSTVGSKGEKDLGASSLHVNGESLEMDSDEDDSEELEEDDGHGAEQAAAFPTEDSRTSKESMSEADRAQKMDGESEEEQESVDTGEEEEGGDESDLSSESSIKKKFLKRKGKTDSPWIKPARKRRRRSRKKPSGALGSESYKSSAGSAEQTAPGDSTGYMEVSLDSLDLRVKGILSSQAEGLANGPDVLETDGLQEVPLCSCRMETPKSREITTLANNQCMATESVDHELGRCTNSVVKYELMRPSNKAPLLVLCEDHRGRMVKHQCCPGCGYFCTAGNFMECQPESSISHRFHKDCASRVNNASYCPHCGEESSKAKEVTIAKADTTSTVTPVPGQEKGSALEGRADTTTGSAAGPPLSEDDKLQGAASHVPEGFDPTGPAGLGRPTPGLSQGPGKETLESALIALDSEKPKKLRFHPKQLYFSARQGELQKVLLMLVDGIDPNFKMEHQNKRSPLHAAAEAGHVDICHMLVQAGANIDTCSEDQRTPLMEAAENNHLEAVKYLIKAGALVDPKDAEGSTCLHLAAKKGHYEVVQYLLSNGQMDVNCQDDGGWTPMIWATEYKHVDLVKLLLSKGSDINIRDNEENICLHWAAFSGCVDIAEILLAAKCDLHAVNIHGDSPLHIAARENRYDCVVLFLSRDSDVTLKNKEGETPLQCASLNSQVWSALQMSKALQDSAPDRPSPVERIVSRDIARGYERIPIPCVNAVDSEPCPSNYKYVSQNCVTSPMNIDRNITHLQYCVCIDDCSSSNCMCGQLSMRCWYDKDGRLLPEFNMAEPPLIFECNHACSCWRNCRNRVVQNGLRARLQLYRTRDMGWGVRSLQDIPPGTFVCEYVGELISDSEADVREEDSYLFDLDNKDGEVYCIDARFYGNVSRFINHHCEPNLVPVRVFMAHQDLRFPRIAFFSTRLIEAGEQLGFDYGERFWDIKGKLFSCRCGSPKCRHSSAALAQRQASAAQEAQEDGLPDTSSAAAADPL
- methodNotes: EHMT1 PEP (EHMT1 peptide enzyme assay)
- Assay type: biochemical
- testSettings: peptide substrate enzyme assay
quantityMeasured: IC50

Examples with their reported IC50 follow.
Q: Returns the measured IC50 for the input molecule. Input: `CNc1cc(C)nc(Nc2ccc(OC)c(-n3cc(CN(C)C)cn3)c2)n1`
Result: < 0.1 µM

Q: Moving on to `CNCc1cnn(-c2c(F)ccc(Nc3nc(C)cc(NC)n3)c2OC)c1`
Result: 0.1 to 1 µM

Q: Moving on to `CNc1cc(C)nc(Nc2ccc(OC)c(-c3cc(C4CC4)cnn3)c2)n1`
Result: 0.1 to 1 µM

Q: Moving on to `CNc1cc(C)nc(Nc2ccc(OC)c(-c3cc4[nH]ccc4cn3)c2OC)n1`
Result: 1 to 10 µM

Q: Moving on to CNc1cc(C)c2cc(OC)c(-n3cc(C4CCCN4)nn3)cc2n1 (centres unmarked)
Result: < 0.1 µM

Next:
Q: Returns the measured IC50 for the input molecule. Input: CNc1cc(C)nc(Nc2ccc(OC)c(-n3cc(C(NC)C(F)(F)F)nn3)c2)n1 (centres unmarked)
Result: > 10 µM

Q: Moving on to `CNc1cc(C)nc(Nc2ccc(OC)c(-n3cc4cncc(C)c4n3)c2)n1`
Result: 0.1 to 1 µM

Q: Moving on to `CNc1cc(C)nc(Nc2ccc(OC)c(-c3nnc4n3CCNC4)c2)n1`
Result: > 10 µM

Q: Moving on to `CCc1ccc(Nc2nc(C)cc(NC)n2)cc1C(=O)Nc1cccnc1`
Result: > 10 µM

Q: Moving on to `CNc1cc(C)nc(Nc2ccc(OC)c(-c3cc4[nH]ccc4cn3)c2)n1`
Result: < 0.1 µM

Q: Moving on to `CNc1cc(C)nc(Nc2ccc(OC)c(-c3nc4cnccn4n3)c2)n1`
Result: 1 to 10 µM

----------
- tgt: recombinant purified human EHMT2 913-1193 (Homo sapiens)
- Construct: Recombinant purified human EHMT2 913-1193 (55 μM) synthesized by Viva was used for all experiments; purchased Viva
- Sequence (Q96KQ7 913-1193): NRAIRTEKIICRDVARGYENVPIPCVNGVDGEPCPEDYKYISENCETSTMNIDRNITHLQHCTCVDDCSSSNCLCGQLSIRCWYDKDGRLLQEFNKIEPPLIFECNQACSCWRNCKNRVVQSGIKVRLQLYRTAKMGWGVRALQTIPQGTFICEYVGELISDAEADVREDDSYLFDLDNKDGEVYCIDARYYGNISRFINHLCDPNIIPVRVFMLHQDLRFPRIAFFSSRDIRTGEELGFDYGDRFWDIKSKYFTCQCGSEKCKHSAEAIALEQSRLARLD
- methodNotes: EHMT2 enzyme assay on histone peptide substrate (3H-SAM Flashplate)
- Assay type: biochemical
- testSettings: read-out: EHMT2 PEP (IC50 μM)
A collection of compounds and their measured IC50

Q: Returns the measured IC50 for the input compound. Input: CNCc1cnn(-c2cc(Nc3nc(C)cc(NC)n3)ccc2C(F)(F)F)c1 [Compound 325]
Result: < 0.1 µM

Next:
Q: Returns the measured IC50 for the input compound. Input: CNc1cc(C)nc(Nc2ccc(OC)c(-n3cc4ccncc4n3)c2)n1 [Compound 41]
Result: > 10 µM

Q: Moving on to CNc1cc(C)nc(Nc2ccc(OC)c(-c3nnc4n3CCNC4)c2)n1 [Compound 21]
Result: > 10 µM

Q: Moving on to CNc1cc(C)nc(Nc2ccc(OC)c(-n3cnc(CN4CCC4)n3)c2)n1 [Compound 67]
Result: > 10 µM

Q: Moving on to CNc1cc(C)nc(Nc2ccc(OC)c(-c3cc4cnccc4n3C)c2)n1 [Compound 158]
Result: 0.1 to 1 µM

Q: Moving on to CNc1cc(C)nc(Nc2ccc(OC)c(-n3cc(CN(C)C)c(C)n3)c2)n1 [Compound 160]
Result: < 0.1 µM

Q: Moving on to CCn1cc(NC(=O)c2cc(Nc3nc(C)cc(NC)n3)ccc2OC)cn1 [Compound 49]
Result: > 10 µM

Q: Moving on to CNc1cc(C)nc(Nc2ccc(OC)c(-c3[nH]c4cnccc4c3CNC(C)=O)c2)n1 [Compound 316]
Result: < 0.1 µM

Q: Moving on to CNc1cc(C)nc(Nc2ccc(OC)c(-c3ccc4c(c3)NC(=O)C4)c2)n1 [Compound 218]
Result: > 10 µM
